The reported measurements were obtained from PubChem BioAssay (NCI).

Tested on: HCC-2998 colon
measurement_protocol: NCI tumour cell line growth inhibition, 48 h
assay_metric: GI50

Please review the entries below; each comes with its answer.
• FC(F)(F)c1ccc(-c2nn3ncccc3c2-c2ccnc(Nc3ccc4c(c3)OCCO4)n2)cc1 = 6.56 µM
• O=C(c1ccc2ccccc2c1)c1nc2cc(F)ccc2[n+]([O-])c1C(F)(F)F = 15.8 µM
• CCCC1(CN2c3ccccc3Sc3ccc(Cl)cc32)CCN(CC)C1 (stereo not drawn) = 1.68 µM

## Task Give the measured GI50 of COc1ccc(C2=NC(=O)NC2c2ccc(OC)cc2)cc1 (stereo not drawn) .
## Result 13 µM

## Task Which GI50 reading was recorded for the molecule CCOC(=O)c1ccc(NC(=O)NC2=NCCS2)cc1 ?
## Result 3.91 µM

## Task What does the data say about its GI50? Entry: CCCN(CCC)c1ccc(C=O)c(Cl)c1
## Result 19.4 µM

## Task If you can, please state the reported GI50 value of CN(C)CCCOc1cccc(NC2=C(Cl)C(=O)C(Nc3cccc(OCCCN(C)C)c3)=C(Cl)C2=O)c1 .
## Result 1.34 µM

## Task // lookup GI50 for c1ccc(-c2nc3n(c2-c2ccc4c(c2)OCO4)CCC3)nc1
## Result 10.4 µM

## Task Dear colleague, I am looking for the recorded GI50 of the following molecule: Cn1cc(-c2cc(-c3cn(C)c4ccc(Cl)cc34)[nH]n2)c2cc(Cl)ccc21
## Result 1.71 µM

## Task Can you share its GI50? I mean this molecule: Cc1cc(N/N=C/c2nc(-c3ccc(Cl)cc3)oc2C)c2cc(Br)ccc2n1
## Result 3.58 µM

## Task Query (molecule): CCCCCCCCCc1ccc(OCCOCCOCCOCCOCCOCCOCCOCCOCCO)cc1 ; field requested: GI50
## Result 0.75 µM

## Task Recorded GI50 for Cn1c(=O)n(C)c2cc(CNCCNc3ccnc4cc(Cl)ccc34)ccc21 , please?
## Result 20.2 µM

## Task Entry N=c1ccc2nc3ccc(N)cc3sc-2c1 has what GI50?
## Result 6.82 µM
